method: Microsomal clearance, human liver microsomes
Type: in vitro ADME
reported conditions: both, pH 7.4, Clint human
recorded endpoint: microsomal CLint at 1 μM (µL/min/mg)
# number only, unit µL/min/mg dropped from output

Field microsomal CLint at 1 μM (entry COc1cc(-c2cnc(C)n2C)ccc1Nc1ncc2ccnc(NCC(C)(C)C)c2n1 [Compound 16] ) reads 79

====

method: Dog blood pharmacokinetics
Type: in vivo
reported conditions: whole blood, iv, 1 mg/kg
recorded endpoint: clearance (mL/min/kg)
# number only, unit mL/min/kg dropped from output

Field clearance (entry CCOc1cc(-c2nncn2C)ccc1Nc1ncc2cc(C)nc(NCC(C)(C)C)c2n1 ) reads 1.2

Measured values drawn from paper PMC6166229 for this set.
